# MEASUREMENT_TARGET: human δ opioid receptor (human, UniProt P41143 1-372)
# Sequence (P41143 whole entry, stated change not applied): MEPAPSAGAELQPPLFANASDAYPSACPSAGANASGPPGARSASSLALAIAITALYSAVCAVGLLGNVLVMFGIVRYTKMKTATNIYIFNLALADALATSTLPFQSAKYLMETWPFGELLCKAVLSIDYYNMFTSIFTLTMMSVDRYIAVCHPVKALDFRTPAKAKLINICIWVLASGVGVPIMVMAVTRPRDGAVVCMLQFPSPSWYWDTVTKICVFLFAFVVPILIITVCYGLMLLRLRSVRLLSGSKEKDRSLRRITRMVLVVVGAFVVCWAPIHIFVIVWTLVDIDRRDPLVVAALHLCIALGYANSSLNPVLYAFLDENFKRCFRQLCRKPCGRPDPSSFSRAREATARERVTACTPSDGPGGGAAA
# EXPERIMENT_DESCRIPTION: cell-based or functional assay
Bridge positions count the residues as written; N and C are the ends. Square brackets hold non-standard residues; d marks the D form. Ends that are not written are not given here. * marks the point of attachment. Glc = O-glucosyl on Ser side chain (Ser(OGlu)/Ser(OGlc)); NH(3,5-(CF3)2-benzyl) = FC(F)(F)c1cc(CN*)cc(C(F)(F)F)c1; NMeBn(3,5-(CF3)2) = CN(Cc1cc(C(F)(F)F)cc(C(F)(F)F)c1)*; NH‑Bn(CF3)2 = C-terminal Bn(CF3)2 amide; Nle = CCCC[C@H](N)C(=O)O; NHBn = c1ccc(CN*)cc1
PARAMETER_MEASURED: GTP binding hDOR EC50 (nM)
Could you give me the number in nM? Just the number is fine.

Take a look at these entries with their results.
INSERT INTO measurements (binder, assay_value) VALUES
  ('Y[dA]GF[Nle]PS(Glc)W-{NH‑Bn(CF3)2} [TyrDAlaGlyPheNleProSer(OGlu)TrpNHBn(CF3)2 (TY041)]', 7.9),
  ('YAGFXPLW (D-Ala at 2; Nle at 5 (X); C-terminal NH-Bn(CF3)2 amide) [TyrDAlaGlyPheNleProLeuTrpNHBn(CF3)2 (TY045)]', 5),
  ('Y[dA]GFFPLW-{NMeBn(3,5-(CF3)2)} [TyrDAlaGlyPhePheProLeuTrpNMeBn(CF3)2 (TY017)]', 122),
  ('Y[dC]GFCPLW-{NH(3,5-(CF3)2-benzyl)} (disulfide 2-5, also called [D-Cys2, Cys5]) [Tyr[DCysGlyPheCys]ProLeuTrpNHBn(CF3)2 (TY039)]', 50.9);

Next:
Q) Endpoint output: GTP binding hDOR EC50 of Y[dA]GFMPLW-NHBn [TyrDAlaGlyPheMetProLeuTrpNHBn (TY025)] . Value?
A) 2.6
